- subject of test: HCV-NS3/4A protease (Hepacivirus hominis (Hepatitis C virus))
- Sequence (O92972 1027-1207, other chains not shown): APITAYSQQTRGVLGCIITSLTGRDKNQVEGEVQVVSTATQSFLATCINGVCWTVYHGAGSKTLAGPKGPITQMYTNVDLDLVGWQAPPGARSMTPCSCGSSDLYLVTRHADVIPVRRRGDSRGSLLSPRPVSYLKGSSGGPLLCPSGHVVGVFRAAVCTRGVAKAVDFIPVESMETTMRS
- experiment summary: HCV-NS3/4A protease inhibition, in vitro FRET assay
- condition label: IC50, purified HCV-NS3/4A protease
observable: pIC50
# reply with the number alone; pIC50 is -log10 of concentration in mol/L

Observe how each entry below is paired with its result.
Cn1c(NN)nc2cc3ccccc3cc2c1=O: 4.65
Cc1ccc2nc(NN)n(C)c(=O)c2c1: 4.59
CCn1c(NN)nc2cc3ccccc3cc2c1=O: 4.10

Looking up "CCn1c(NN)nc2ccc(C)cc2c1=O" , I see its pIC50 listed as 3.75
